Assembled from different publications: IC50 for Prostaglandin G/H synthase 1 (Ovis aries).

[
  {
    "Molecule": "CCO/C=N/c1nnc(-c2cccnc2)o1",
    "IC50": "12.7 µM"
  },
  {
    "Molecule": "CS(=O)(=O)c1ccc(-c2cc(CCC(=O)O)sc2-c2ccc(F)cc2)cc1",
    "IC50": "12 µM"
  },
  {
    "Molecule": "Cc1ccc(/C=C(\\C(=O)c2ccc(S(C)(=O)=O)cc2)c2ccccc2)cc1",
    "IC50": "12.2 µM"
  },
  {
    "Molecule": "Cc1ccc(Cl)c(Nc2ccccc2C(=O)N[C@H](C)C(=O)O)c1Cl",
    "IC50": "8 µM"
  },
  {
    "Molecule": "Clc1ccc(/C=N/c2nnc(-c3cccnc3)o2)cc1",
    "IC50": "10.5 µM"
  },
  {
    "Molecule": "Fc1ccc(-c2nn(-c3ccccc3)cc2-c2nnc(-c3ccc(Cl)cc3)o2)cc1",
    "IC50": "> 100 µM"
  },
  {
    "Molecule": "C/C(=N\\NC(N)=O)c1nnn(-c2ccc(C(=O)O)cc2)c1C",
    "IC50": "6.9 µM"
  },
  {
    "Molecule": "c1ccc(-c2nnc(-c3cn(-c4ccccc4)nc3-c3ccccc3)o2)cc1",
    "IC50": "> 100 µM"
  },
  {
    "Molecule": "CCCCCC/C(=C(\\c1ccccc1)c1ccc(S(C)(=O)=O)cc1)c1ccccc1",
    "IC50": "> 100 µM"
  },
  {
    "Molecule": "FC(F)(F)c1ccc(CSc2nccn2-c2ccccc2)cc1",
    "IC50": "> 100 µM"
  },
  {
    "Molecule": "COc1cccc(C2CC(c3ccc(S(C)(=O)=O)cc3)=NN2c2ccc(C(=O)O)cc2)c1 (centres undefined)",
    "IC50": "10.1 µM"
  },
  {
    "Molecule": "NS(=O)(=O)c1ccc(-c2conc2-c2ccc(F)cc2)cc1",
    "IC50": "> 100 µM"
  },
  {
    "Molecule": "Cc1ccc(-c2cc(-c3ccc(S(C)(=O)=O)cc3)c(-c3ccccc3)c(=O)o2)cc1",
    "IC50": "> 100 µM"
  },
  {
    "Molecule": "COC1(c2cccc(CNc3cc(Cl)ccc3OCc3ccccc3)c2)CCOCC1",
    "IC50": "> 100 µM"
  },
  {
    "Molecule": "CCCCCCCCc1ccccc1OC(C)=O",
    "IC50": "> 40 µM"
  },
  {
    "Molecule": "CS(=O)(=O)c1ccc(-c2ccc([N+](=O)[O-])cc2-c2ccccc2)cc1",
    "IC50": "> 100 µM"
  },
  {
    "Molecule": "CS(=O)(=O)c1ccc(-c2cc(-c3ccc(F)cc3)no2)cc1",
    "IC50": "> 100 µM"
  },
  {
    "Molecule": "COc1ccc2c(c1)c1c(n2CC(=O)O)CCN(C(=O)c2ccccc2)C1",
    "IC50": "> 10 µM"
  },
  {
    "Molecule": "CS(=O)(=O)c1ccc(-c2ccccc2-c2ccccn2)cc1",
    "IC50": "> 300 µM"
  },
  {
    "Molecule": "COc1ccc2c(c1)c(CC(=O)OCO/N=[N+](\\[O-])N(C)C)c(C)n2C(=O)c1ccc(Cl)cc1",
    "IC50": "> 100 µM"
  },
  {
    "Molecule": "NS(=O)(=O)c1ccc(-c2cc(-c3ccccc3)no2)cc1",
    "IC50": "> 100 µM"
  },
  {
    "Molecule": "COc1ccc(-c2nn(-c3ccccc3)cc2-c2nnc(-c3ccc(Cl)cc3)o2)cc1",
    "IC50": "> 100 µM"
  },
  {
    "Molecule": "CS(=O)(=O)c1cccc(C#Cc2cccnc2)c1",
    "IC50": "> 100 µM"
  },
  {
    "Molecule": "CCCCC(Sc1nc(OCCc2ccccc2)cc(OCCc2ccccc2)n1)C(=O)O (centres undefined)",
    "IC50": "> 10 µM"
  }
]
